binders and their reported IC50 (pM), IL-13 induced TF-1 cell proliferation
# experimental system: T1, human IL-4Rα on TF-1 cells (human, UniProt P24394 26-825)
# T1 sequence (looked up): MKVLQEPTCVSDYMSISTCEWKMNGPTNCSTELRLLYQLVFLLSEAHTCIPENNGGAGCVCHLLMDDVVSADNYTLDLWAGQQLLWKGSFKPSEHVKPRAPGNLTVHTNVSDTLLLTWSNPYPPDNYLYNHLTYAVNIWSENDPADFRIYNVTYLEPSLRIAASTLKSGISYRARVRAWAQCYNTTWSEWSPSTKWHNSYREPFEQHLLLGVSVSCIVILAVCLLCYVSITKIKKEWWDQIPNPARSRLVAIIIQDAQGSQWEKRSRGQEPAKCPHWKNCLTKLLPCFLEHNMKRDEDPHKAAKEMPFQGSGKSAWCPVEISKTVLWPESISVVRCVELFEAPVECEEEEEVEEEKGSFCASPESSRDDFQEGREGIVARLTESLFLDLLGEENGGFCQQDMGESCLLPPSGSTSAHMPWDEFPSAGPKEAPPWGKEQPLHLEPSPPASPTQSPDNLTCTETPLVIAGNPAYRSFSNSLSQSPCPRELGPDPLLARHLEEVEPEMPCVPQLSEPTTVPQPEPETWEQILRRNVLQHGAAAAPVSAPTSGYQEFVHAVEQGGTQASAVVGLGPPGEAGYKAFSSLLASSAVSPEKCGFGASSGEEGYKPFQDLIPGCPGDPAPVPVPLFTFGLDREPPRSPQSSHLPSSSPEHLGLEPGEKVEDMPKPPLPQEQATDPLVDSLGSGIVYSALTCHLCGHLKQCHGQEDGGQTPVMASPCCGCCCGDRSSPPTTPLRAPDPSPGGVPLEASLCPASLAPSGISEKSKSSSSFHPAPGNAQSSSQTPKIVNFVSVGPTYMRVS
# test description: cell-based or functional assay
metric name: IC50 (pM), IL-13 induced TF-1 cell proliferation

{"binder": "Antibody 37 IgG (antibody, V domains shown) VH: QVQLVQSGAEVKKPGASVKVSCKASGYAFTSYYMHWARQAPGQGLEWMGIINPRGGSTSYAQKFQGRVAMTRDTSTSTVYMELSSLRPEDTAVYYCARGKYWMYDWGKGTLVTVSS VL: QSVLTQPPSVSAAPGQKVTISCSGGGSSIGNSYVSWYQQLPGTAPKLLIYDNNKRPSGVPDRFSGSKSGTSATLAITGLQTGDEADYYCGTWDTSPVWEWPFGTGTKLTVL", "number": 22.1}
{"binder": "Antibody 12 IgG (antibody, V domains shown) VH: QVQLVQSGAEVKKPGASVKVSCKASGYAFTSYYMHWARQAPGQGLEWMGIINPSGGSTSYAQKFQGRVTMTRDTSTSTVYMELSSLRSEDTAVYYCARGKWWFYDWGKGTLVTVSS VL: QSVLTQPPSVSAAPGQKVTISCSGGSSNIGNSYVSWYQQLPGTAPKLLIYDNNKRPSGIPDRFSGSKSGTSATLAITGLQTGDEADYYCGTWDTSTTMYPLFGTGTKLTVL", "number": 40.7}
{"binder": "Antibody 8 IgG (antibody, V domains shown) VH: QVQLVQSGAEVKKPGASVKVSCKASGYAFTSYYMHWARQAPGQGLEWMGIINPSGGSTSYAQKFQGRVTMTRDTSTSTVYMELSSLRSEDTAVYYCARGKWWWQYWGKGTLVTVSS VL: QSVLTQPPSVSAAPGQKVTISCSGGSSNIGNSYVSWYQQLPGTAPKLLIYDNNKRPSGIPDRFSGSKSGTSATLAITGLQTGDEADYYCGTWDTSTTYHPIFGTGTKLTVL", "number": 22.4}
{"binder": "Antibody 31 IgG (antibody, V domains shown) VH: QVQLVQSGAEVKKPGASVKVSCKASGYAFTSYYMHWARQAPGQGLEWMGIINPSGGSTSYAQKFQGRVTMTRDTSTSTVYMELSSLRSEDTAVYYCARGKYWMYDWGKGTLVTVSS VL: QSVLTQPPSVSAAPGQKVTISCSGGSSSIGNSYVSWYQQLPGTAPKLLIYDNNKRPSGIPDRFSGSKSGTSATLAITGLQTGDEADYYCGTWATSPVWEWPFGTGTKLTVL", "number": 44.2}
{"binder": "Antibody 42 IgG (antibody, V domains shown) VH: QVQLVQSGAEVKKPGASVKVSCKASGYAFTSYYMHWARQAPGQGLEWVGIINPSGGSTSYAQKFQGRVTMTRDTSTSTVYMELSSLRSGDTAVYYCARGKYWMYDWGKGTLVTVSS VL: QAVLTQPPSVSAAPGQKVTISCSGGSSNIGNSYVSWYQRLPGAAPKLLIYDNNKRPSGIPDRFSGSKSGTSATLAITGLQTGDEADYYCGTWDTSTGWEWPFGTGTKLTVL", "number": 42.7}

Data provenance: patent US20180057596A1
